Each recorded value in this set is attributed to ChEMBL document CHEMBL1955737.

Test system: Human immunodeficiency virus type 1 reverse transcriptase (Human immunodeficiency virus 1), Q72547 [K103N]
assay_metric: log10 of ID50 (log10 of the value in µM)
Annotation: log10 of ID50, µM basis.

These recorded examples may help you get a feel for the data.
- molecule: "Cc1c(Cc2c(F)cccc2F)nc(Nc2ccc(C#N)cc2)[nH]c1=O"
  log10 of ID50: 1.33
- molecule: "Cc1c(Cl)nc(Nc2ccc(C#N)cc2)nc1Cc1c(F)cccc1F"
  log10 of ID50: -0.35
- molecule: "Cc1cnc(Nc2ccc(C#N)cc2)nc1C(C)c1c(F)cccc1F (configuration not stated)"
  log10 of ID50: -0.81

Recorded log10 of ID50 for Cc1cc(C)c(Nc2ccnc(Nc3ccc(C#N)cc3)n2)c(C)c1 , please?
-1.00

Fill in the blank: the reported log10 of ID50 of Cc1cnc(Nc2ccc(C#N)cc2)nc1Cc1c(F)cccc1F is ____.
-0.58
